In this section, each of the compounds is paired with its reported T/C.
# Test system: BDF1 mice, P388 leukemia ip, median survival T/C
# Protocol description: NCI In Vivo Anticancer Drug Screen. Data for tumor model P388 Leukemia (intraperitoneal) in B6D2F1 (BDF1) mice
# Condition summary: endpoint: median survival time; dose: 100.0 mg/kg/injection; schedule: Q04DX003 (ip); vehicle: saline with Tween-80; higher = longer survival
Toxic doses and inconclusive results are not listed.
Readout kind: T/C

[
  {
    "Compound": "CCCCNC(C)(C)C(SSC(c1cccs1)C(C)(C)NCCCC)c1cccs1 (stereo unspecified)",
    "Readout kind": "T/C",
    "Readout value": "118 % of control"
  },
  {
    "Compound": "CC1=CC(=O)C=CC1(C)C(Cl)Cl (stereo unspecified)",
    "Readout kind": "T/C",
    "Readout value": "90 % of control"
  },
  {
    "Compound": "Cc1ccc(N2C(=O)CC(Sc3ccccc3N)C2=O)cc1Cl (stereo unspecified)",
    "Readout kind": "T/C",
    "Readout value": "95 % of control"
  },
  {
    "Compound": "Oc1ccc(C=Nc2ccccc2N=Cc2ccc(O)c(O)c2)cc1O",
    "Readout kind": "T/C",
    "Readout value": "110 % of control"
  },
  {
    "Compound": "S=C(S)NNc1ccccc1",
    "Readout kind": "T/C",
    "Readout value": "100 % of control"
  },
  {
    "Compound": "O=C(NC(CO)C(O)c1ccc([N+](=O)[O-])cc1)C(Cl)Cl (stereo unspecified)",
    "Readout kind": "T/C",
    "Readout value": "104 % of control"
  }
]

Where do these numbers come from? They come from PubChem BioAssay AID328.
